- assayed-target: human histamine H3 receptors (full-length H3, isoform 445) (Homo sapiens, UniProt Q9Y5N1);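 also: scintillation counts read after the 1.5 hr incubation at room temperature with shaking, Imetit serving as reference control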
- Sequence (Q9Y5N1 whole entry, canonical isoform): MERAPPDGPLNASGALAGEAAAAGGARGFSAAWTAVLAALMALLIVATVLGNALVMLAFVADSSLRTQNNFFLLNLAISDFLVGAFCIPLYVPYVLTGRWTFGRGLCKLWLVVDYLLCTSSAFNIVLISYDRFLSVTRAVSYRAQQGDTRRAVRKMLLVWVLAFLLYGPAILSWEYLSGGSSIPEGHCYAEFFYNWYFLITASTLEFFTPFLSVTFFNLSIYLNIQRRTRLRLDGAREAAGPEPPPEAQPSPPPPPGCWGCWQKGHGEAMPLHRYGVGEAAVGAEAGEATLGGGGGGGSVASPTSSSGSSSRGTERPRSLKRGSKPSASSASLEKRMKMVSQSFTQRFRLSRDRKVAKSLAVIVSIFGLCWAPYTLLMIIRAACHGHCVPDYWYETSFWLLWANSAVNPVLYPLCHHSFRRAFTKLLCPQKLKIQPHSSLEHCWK
- protocol-conditions: hH3 binding IC50 (nM), inhibition of 1.4 nM [3H]-N-α-methylhistamine binding to CHO-K1 membranes expressing human H3, SPA, 1.5 hr
Label yes (1) when IC50 is strictly below 20 nM; otherwise label no (0).

Identify whether the compound CN1CCN(C(=O)C2CC23CCN(C2CCOCC2)CC3)CC1 (centres unmarked) records IC50 below 20 nM.
no (0)

Identify whether the compound O=C(C1CC12CCN(C1CCCCC1)CC2)N1CCN(C2CCC2)CC1 (single isomer, unassigned) [Example 26] records IC50 below 20 nM.
yes (1)

Identify whether the compound O=C(C1CC12CCN(C1CCOCC1)CC2)N1CCN(C2CCC2)CC1 (centres unmarked) records IC50 below 20 nM.
yes (1)

Identify whether the compound CN1CCN(C(=O)C2CC23CCN(CCc2ccccc2)CC3)CC1 (centres unmarked) records IC50 below 20 nM.
no (0)

Identify whether the compound O=C(C1CC12CCN(CCN1CCOCC1)CC2)N1CCN(C2CCC2)CC1 (centres unmarked) records IC50 below 20 nM.
no (0)

Source: patent US20100168105A1
